# TEST_TARGET: human sodium channels Nav 1.8 (Homo sapiens)
# Construct: expressed in transfected cells
# Sequence (Q9Y5Y9 whole entry): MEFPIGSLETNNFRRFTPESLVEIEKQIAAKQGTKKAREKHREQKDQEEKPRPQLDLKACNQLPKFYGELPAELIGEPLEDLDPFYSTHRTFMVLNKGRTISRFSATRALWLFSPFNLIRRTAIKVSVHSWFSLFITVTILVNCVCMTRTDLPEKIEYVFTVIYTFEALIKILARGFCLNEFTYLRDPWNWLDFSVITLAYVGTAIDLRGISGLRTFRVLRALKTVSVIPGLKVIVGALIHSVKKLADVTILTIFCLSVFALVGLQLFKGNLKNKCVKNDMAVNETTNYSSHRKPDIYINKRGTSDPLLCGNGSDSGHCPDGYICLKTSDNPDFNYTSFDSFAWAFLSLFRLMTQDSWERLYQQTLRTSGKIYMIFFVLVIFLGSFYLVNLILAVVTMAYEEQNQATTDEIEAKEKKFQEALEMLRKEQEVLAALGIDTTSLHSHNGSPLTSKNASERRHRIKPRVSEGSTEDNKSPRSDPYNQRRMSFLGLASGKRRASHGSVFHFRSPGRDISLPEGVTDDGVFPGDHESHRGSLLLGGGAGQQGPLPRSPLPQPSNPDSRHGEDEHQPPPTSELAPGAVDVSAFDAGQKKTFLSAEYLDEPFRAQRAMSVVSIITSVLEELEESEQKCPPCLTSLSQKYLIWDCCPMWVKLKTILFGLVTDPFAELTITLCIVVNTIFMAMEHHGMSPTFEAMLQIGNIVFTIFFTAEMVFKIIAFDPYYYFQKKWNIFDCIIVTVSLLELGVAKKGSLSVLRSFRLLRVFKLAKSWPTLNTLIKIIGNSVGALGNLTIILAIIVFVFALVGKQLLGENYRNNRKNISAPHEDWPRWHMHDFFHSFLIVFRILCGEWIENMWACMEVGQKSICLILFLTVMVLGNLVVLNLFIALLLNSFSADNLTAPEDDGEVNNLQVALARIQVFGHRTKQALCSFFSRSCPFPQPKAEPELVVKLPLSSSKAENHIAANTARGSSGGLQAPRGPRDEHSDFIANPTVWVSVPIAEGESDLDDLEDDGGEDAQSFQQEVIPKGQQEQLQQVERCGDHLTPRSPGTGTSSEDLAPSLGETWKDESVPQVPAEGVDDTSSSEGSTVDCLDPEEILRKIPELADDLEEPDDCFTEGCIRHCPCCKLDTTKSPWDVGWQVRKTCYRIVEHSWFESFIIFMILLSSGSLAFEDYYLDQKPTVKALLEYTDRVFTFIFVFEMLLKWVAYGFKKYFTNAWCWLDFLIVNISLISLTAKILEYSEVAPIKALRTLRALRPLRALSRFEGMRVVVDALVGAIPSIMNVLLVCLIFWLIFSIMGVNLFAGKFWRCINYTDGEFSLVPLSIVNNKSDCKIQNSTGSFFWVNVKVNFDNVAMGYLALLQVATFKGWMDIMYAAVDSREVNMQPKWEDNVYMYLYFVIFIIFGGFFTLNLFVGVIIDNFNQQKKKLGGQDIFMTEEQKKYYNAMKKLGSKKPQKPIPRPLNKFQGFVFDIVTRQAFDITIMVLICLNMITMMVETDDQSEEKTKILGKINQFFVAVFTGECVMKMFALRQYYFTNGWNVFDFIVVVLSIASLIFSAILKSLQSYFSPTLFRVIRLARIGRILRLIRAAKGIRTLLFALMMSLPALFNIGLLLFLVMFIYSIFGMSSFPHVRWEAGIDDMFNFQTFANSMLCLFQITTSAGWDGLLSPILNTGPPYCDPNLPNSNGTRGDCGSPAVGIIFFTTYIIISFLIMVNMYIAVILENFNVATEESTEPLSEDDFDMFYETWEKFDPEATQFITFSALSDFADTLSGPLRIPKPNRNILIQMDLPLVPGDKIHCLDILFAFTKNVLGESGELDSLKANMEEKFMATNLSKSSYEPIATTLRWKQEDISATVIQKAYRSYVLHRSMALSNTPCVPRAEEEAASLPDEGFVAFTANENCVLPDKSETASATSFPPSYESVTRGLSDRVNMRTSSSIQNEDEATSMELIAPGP
# ASSAY_PROCEDURE: Automated whole-cell voltage-clamp (ScreenPatch 384P) sodium current block, Nav 1.8
# Type: cell-based
# RUN_PARAMETERS: CHO cells stably expressing human Nav 1.8; inactivation step -40 mV 8 s, test step 10 mV (TP1A); eight concentrations; exposure at least five minutes; room temperature; read-out: Nav1.8 IC50
Listed below: IC50 values for each entry.

- SAMPLE_SMILES: "O=C(N/N=C/c1cc(O)cnc1F)c1cncc(-c2ccc(OC(F)F)nc2)n1"
  IC50: "500 to 1000 nM"

Dear colleague, I am looking for the recorded IC50 of the following compound: `COc1cc(O)c(F)c(/C=N/NC(=O)c2cncc(-c3ccc(OC(F)F)nc3)n2)c1`
500 to 1000 nM

What IC50 value was documented for this compound, `COc1ccc(F)c(/C=N/NC(=O)c2cncc(-c3ccc(OC(F)(F)F)nc3)n2)n1` ?
> 1000 nM

Need IC50 of `CCOc1ccc(-c2cncc(C(=O)N/N=C/c3cc(OC4CCC4)cnc3F)n2)cn1` , thanks.
< 500 nM

Find the recorded IC50 belonging to `COc1ccc(F)c(/C=N/NC(=O)c2cncc(-c3ccc(OC4CC4)nc3)n2)c1` and report it.
< 500 nM

Look up IC50 for this compound: `COc1cnc(F)c(/C=N/NC(=O)c2nccc(-c3ccc(OC(F)F)nc3)n2)c1`
500 to 1000 nM

Need IC50, item `CCOc1ccc(-c2cncc(C(=O)N/N=C/c3ccnn3CC)n2)cn1`
< 500 nM

May I ask what IC50 has been recorded for `CCOc1ccc(-c2cncc(C(=O)N/N=C/c3cccn3C)n2)cn1` ?
< 500 nM
